Target: UniProtKB Q62928
Test: Binding affinity to rat EP2 receptor expressed in HEK293 cells
pIC50: −log10 of the molar value.
EXPERIMENTAL ENDPOINT: pIC50

INSERT INTO assay_data (compound, experimental_endpoint, reading) VALUES
  ('O=C(O)c1ccc(CCCN2C(=O)CCC2CCC(O)Cc2cccc(Oc3ccccc3)c2)cc1 (stereo not given)', 'pIC50', '< 5.49'),
  ('COCc1cccc(C[C@H](O)CC[C@H]2CCC(=O)N2CCCCCCC(=O)O)c1', 'pIC50', '< 5.49'),
  ('O=C(O)c1ccc(CCCN2C(=O)CC[C@@H]2CCC(O)Cc2cccc(-c3ccccc3)c2)s1 (stereo not given in full)', 'pIC50', 6.87),
  ('O=C(O)CCCCCCN1C(=O)CC[C@@H]1CC[C@@H](O)Cc1cccc(C(F)(F)F)c1', 'pIC50', '< 5.49'),
  ('O=C(O)CCCCCCN1C(=O)CC[C@@H]1CCC(O)Cc1ccccc1 (stereo not given in full)', 'pIC50', '< 5.49'),
  ('O=C(O)c1ccc(CCCN2C(=O)CCC2CCC(O)Cc2cccc(F)c2)cc1 (stereo not given)', 'pIC50', '< 5.49');

Now look at this entry.
Enquiry: # input compound: O=C(O)c1ccc(CCCN2C(=O)CCC2CCC(O)Cc2cccc(Cl)c2)cc1 (stereo not given) ; wanted: its pIC50
Return: < 5.49

====

Below, each of the compounds is paired with its reported pIC50 value.
Target: Prostaglandin E2 receptor EP4 subtype (Rattus norvegicus)
Sequence (P43114 whole entry): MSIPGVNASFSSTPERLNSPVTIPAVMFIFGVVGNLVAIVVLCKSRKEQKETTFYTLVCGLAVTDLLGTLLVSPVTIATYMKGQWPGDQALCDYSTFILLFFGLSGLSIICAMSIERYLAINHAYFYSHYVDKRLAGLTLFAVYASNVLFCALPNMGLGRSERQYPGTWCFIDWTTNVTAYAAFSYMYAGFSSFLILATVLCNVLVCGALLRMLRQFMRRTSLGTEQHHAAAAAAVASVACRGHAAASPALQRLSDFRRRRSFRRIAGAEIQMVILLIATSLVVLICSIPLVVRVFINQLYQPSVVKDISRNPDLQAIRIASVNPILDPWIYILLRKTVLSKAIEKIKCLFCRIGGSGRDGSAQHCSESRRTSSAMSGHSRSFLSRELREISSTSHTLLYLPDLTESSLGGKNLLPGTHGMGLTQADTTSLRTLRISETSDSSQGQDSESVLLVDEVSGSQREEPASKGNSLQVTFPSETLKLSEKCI
Test: Binding affinity to rat EP4 receptor expressed in HEK293 cells
As a rule, pIC50 stands for the negative log10 of the concentration, concentration in M.

INSERT INTO assay_data (compound, reading) VALUES
  ('O=C(O)c1ccc(CCCN2C(=O)CCC2CCC(O)Cc2cccc(F)c2)cc1 (stereo not given)', 6.90),
  ('O=C(O)c1ccc(CCCN2C(=O)CC[C@@H]2CCC(O)Cc2cccc(F)c2)s1 (stereo not given in full)', 7.77),
  ('O=C(O)c1ccc(CCCN2C(=O)CCC2CCC(O)Cc2cccc(-c3ccccc3)c2)cc1 (stereo not given)', 7.33),
  ('O=C(O)c1ccc(CCCN2C(=O)CCC2CCC(O)Cc2ccccc2)cc1 (stereo not given)', 6.60),
  ('O=C(O)CCCCCCN1C(=O)CCC1CCC(O)Cc1cccc(Cl)c1 (stereo not given)', 7.66),
  ('COCc1cccc(C[C@H](O)CC[C@H]2CCC(=O)N2CCCCCCC(=O)O)c1', 7.21),
  ('CCc1ccc(CC(O)CC[C@H]2CCC(=O)N2CCCc2ccc(C(=O)O)s2)cc1 (stereo not given in full)', 6.85),
  ('O=C(O)c1ccc(CCCN2C(=O)CCC2CCC(O)Cc2cccc(Cl)c2)cc1 (stereo not given)', 7.38),
  ('N#Cc1cccc(C[C@H](O)CC[C@H]2CCC(=O)N2CCCCCCC(=O)O)c1', 6.41),
  ('O=C(O)c1ccc(CCCN2C(=O)CC[C@@H]2CCC(O)Cc2ccc3ccccc3c2)s1 (stereo not given in full)', 7.19);

Enquiry: Reported pIC50, compound `O=C(O)CCCCCCN1C(=O)CC[C@@H]1CC[C@@H](O)Cc1cccc(OC(F)(F)F)c1` : ____
Return: 7.23

Enquiry: I would be grateful if you could share the reported pIC50 for `O=C(O)CCCCCCN1C(=O)CC[C@@H]1CC[C@@H](O)Cc1cccc(O)c1` .
Return: 5.92

Enquiry: Could you tell me which pIC50 is on file for `O=C(O)c1ccc(CCCN2C(=O)CC[C@@H]2CC[C@@H](O)Cc2cccc(Cl)c2)s1` ?
Return: 8.96

Enquiry: Please give the measured pIC50 for this compound: `O=C(O)CCCCCCN1C(=O)CC[C@@H]1CC[C@@H](O)Cc1cccc(-c2ccccc2)c1`
Return: 6.47

Enquiry: Query: pIC50; subject: `COCCc1cccc(C[C@H](O)CC[C@H]2CCC(=O)N2CCCCCCC(=O)O)c1`
Return: 6.68

Enquiry: Return reported pIC50; argument: `O=C(O)c1ccc(CCCN2C(=O)CC[C@@H]2CC[C@@H](O)Cc2ccc(F)cc2)s1`
Return: 7.15

Enquiry: pIC50 for O=C(O)CCCCCCN1C(=O)CC[C@@H]1CCC(O)Cc1ccccc1 (stereo not given in full) ?
Return: 7.27

====

Molecular target: Prostaglandin E2 receptor EP3 subtype (Homo sapiens)
Sequence (P43115 whole entry): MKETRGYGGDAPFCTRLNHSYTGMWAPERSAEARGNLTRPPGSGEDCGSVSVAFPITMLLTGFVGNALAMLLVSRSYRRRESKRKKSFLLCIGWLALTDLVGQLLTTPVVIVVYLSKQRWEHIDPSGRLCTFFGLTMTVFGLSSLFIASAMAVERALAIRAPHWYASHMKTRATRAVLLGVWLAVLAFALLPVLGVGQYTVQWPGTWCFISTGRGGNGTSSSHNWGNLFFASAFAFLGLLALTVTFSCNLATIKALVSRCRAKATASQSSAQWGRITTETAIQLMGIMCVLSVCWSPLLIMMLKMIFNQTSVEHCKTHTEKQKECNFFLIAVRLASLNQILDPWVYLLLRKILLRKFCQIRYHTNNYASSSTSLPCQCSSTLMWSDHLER
Test: Binding affinity to human EP3 receptor expressed in HEK293 cells
This listing pairs compounds with measured IC50.

Observe how each entry below is paired with its result.
INSERT INTO measurements (compound, reading) VALUES
  ('O=C(O)CCCCCCN1C(=O)CC[C@@H]1CCC(O)Cc1cccc(Oc2ccccc2)c1 (stereo partly drawn)', '> 3.2 µM'),
  ('O=C(O)c1ccc(CCCN2C(=O)CCC2CCC(O)Cc2ccc(F)cc2)cc1 (stereo not drawn)', '> 3.2 µM'),
  ('O=C(O)c1ccc(CCCN2C(=O)CCC2CCC(O)Cc2ccccc2)cc1 (stereo not drawn)', '> 3.2 µM'),
  ('O=C(O)CCCCCCN1C(=O)CC[C@@H]1CCC(O)Cc1ccccc1 (stereo partly drawn)', '> 3.2 µM'),
  ('O=C(O)c1ccc(CCCN2C(=O)CCC2CCC(O)Cc2cccc(Cl)c2)cc1 (stereo not drawn)', '> 3.2 µM');

Enquiry: Dear colleague, I am looking for the recorded IC50 of the following compound: O=C(O)c1ccc(CCCN2C(=O)CC[C@@H]2CCC(O)Cc2ccc(Cl)cc2)s1 (stereo partly drawn)
Return: > 3.2 µM

Enquiry: What value of IC50 has been recorded for this entry: `COCc1cccc(C[C@H](O)CC[C@H]2CCC(=O)N2CCCCCCC(=O)O)c1`
Return: > 2 µM

Enquiry: Look at this compound and give its reported IC50. O=C(O)c1ccc(CCCN2C(=O)CC[C@@H]2CCC(O)Cc2cccc(-c3ccccc3)c2)s1 (stereo partly drawn)
Return: 20 µM

====

Target: Prostaglandin E2 receptor EP4 subtype (Rattus norvegicus) (UniProt P43114)
Assay: Activity at rat EP4 transfected in HEK293 cells by cAMP accumulation compared to PGE2
Assay type: functional, cell-based
Known Activity of a selection of molecules
Kindly provide the numeric value in % only, without the unit symbol.

// worked examples, Activity included
INSERT INTO measurements (molecule, experimental_endpoint, measure_unit, reading) VALUES
  ('O=C(O)c1ccc(CCCN2C(=O)CC[C@@H]2CC[C@@H](O)Cc2cccc(C(F)(F)F)c2)s1', 'Activity', '%', 102),
  ('O=C(O)c1ccc(CCCN2C(=O)CC[C@@H]2CC[C@@H](O)Cc2cccc(Cl)c2)s1', 'Activity', '%', 70);

Now consider the entry below.
Enquiry: Sample `O=C(O)CCCCCCN1C(=O)CC[C@@H]1CC[C@@H](O)Cc1cccc(O)c1` — what was its Activity?
Return: 100

====

Target: Prostaglandin E2 receptor EP2 subtype (Rattus norvegicus, UniProt Q62928)
Sequence (Q62928 whole entry): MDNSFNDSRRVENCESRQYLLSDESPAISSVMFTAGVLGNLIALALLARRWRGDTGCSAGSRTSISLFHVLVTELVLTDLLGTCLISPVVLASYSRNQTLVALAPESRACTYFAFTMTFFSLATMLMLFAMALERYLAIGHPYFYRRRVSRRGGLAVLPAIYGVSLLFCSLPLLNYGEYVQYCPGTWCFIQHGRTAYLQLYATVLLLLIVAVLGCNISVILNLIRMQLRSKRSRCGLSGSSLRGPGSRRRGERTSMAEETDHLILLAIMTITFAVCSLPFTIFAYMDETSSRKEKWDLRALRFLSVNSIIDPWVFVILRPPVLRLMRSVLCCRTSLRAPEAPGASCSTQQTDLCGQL
Assay: Binding affinity to rat EP2 receptor expressed in HEK293 cells
Please use met for IC50 under 200 nM and not met for everything else, ties included.

Recorded results for 6 compounds are shown here.
INSERT INTO measurements (compound, assigned_class) VALUES
  ('N#Cc1cccc(C[C@H](O)CC[C@H]2CCC(=O)N2CCCCCCC(=O)O)c1', 'not met'),
  ('O=C(O)c1ccc(CCCN2C(=O)CC[C@@H]2CCC(O)Cc2cccc(F)c2)s1 (some centres undefined)', 'not met'),
  ('O=C(O)CCCCCCN1C(=O)CC[C@@H]1CC[C@@H](O)Cc1cccc(O)c1', 'not met'),
  ('O=C(O)CCCCCCN1C(=O)CC[C@@H]1CCC(O)Cc1cccc(Oc2ccccc2)c1 (some centres undefined)', 'not met'),
  ('O=C(O)c1ccc(CCCN2C(=O)CC[C@@H]2CC[C@@H](O)Cc2ccc(F)cc2)s1', 'not met'),
  ('O=C(O)c1ccc(CCCN2C(=O)CC[C@@H]2CC[C@@H](O)Cc2cccc(C(F)(F)F)c2)s1', 'not met');

Continue with the compound presented below.
Enquiry: Strictly below 200 nM: is that where IC50 of O=C(O)c1ccc(CCCN2C(=O)CCC2CCC(O)Cc2cccc(-c3ccccc3)c2)cc1 (centres undefined) sits?
Return: not met

====

Molecular target: UniProt P43114
Test: Activity at rat EP4 transfected in HEK293 cells by cAMP accumulation
Under this convention, satisfied denotes EC50 strictly below 90 nM and not satisfied denotes EC50 at or above 90 nM.

Enquiry: Take the compound O=C(O)CCCCCCN1C(=O)CC[C@@H]1CCC(O)Cc1ccccc1 (stereo not given in full) and say whether its EC50 is less than 90 nM.
Return: satisfied

====

Each entry below lists one item and its recorded EC50 value.
Target: Prostaglandin E2 receptor EP4 subtype (Rattus norvegicus)
Assay: Activity at rat EP4 transfected in HEK293 cells by cAMP accumulation
Please give a number only; it is taken to be in nM.

Recorded EC50, per entry:
INSERT INTO measurements (compound, measure_unit, reading) VALUES
  ('O=C(O)c1ccc(CCCN2C(=O)CCC2CCC(O)Cc2cccc(Cl)c2)cc1 (stereo not given)', 'nM', 425),
  ('O=C(O)c1ccc(CCCN2C(=O)CC[C@@H]2CC[C@@H](O)Cc2cccc(C(F)(F)F)c2)cc1', 'nM', 105),
  ('O=C(O)c1ccc(CCCN2C(=O)CCC2CCC(O)Cc2cccc(-c3ccccc3)c2)cc1 (stereo not given)', 'nM', 440),
  ('COCc1cccc(C[C@H](O)CC[C@H]2CCC(=O)N2CCCCCCC(=O)O)c1', 'nM', 18);

Let us move to another entry and its EC50.
Enquiry: Give recorded EC50 with Prostaglandin E2 receptor EP4 subtype (Rattus norvegicus) for the following compound: `N#Cc1cccc(C[C@H](O)CC[C@H]2CCC(=O)N2CCCCCCC(=O)O)c1`
Return: 96
